Every entry's value here was drawn from patent US7037905B2.

# subject-of-test: HSL (Homo sapiens, UniProt Q05469)
# Sequence (Q05469 whole entry, species assumed): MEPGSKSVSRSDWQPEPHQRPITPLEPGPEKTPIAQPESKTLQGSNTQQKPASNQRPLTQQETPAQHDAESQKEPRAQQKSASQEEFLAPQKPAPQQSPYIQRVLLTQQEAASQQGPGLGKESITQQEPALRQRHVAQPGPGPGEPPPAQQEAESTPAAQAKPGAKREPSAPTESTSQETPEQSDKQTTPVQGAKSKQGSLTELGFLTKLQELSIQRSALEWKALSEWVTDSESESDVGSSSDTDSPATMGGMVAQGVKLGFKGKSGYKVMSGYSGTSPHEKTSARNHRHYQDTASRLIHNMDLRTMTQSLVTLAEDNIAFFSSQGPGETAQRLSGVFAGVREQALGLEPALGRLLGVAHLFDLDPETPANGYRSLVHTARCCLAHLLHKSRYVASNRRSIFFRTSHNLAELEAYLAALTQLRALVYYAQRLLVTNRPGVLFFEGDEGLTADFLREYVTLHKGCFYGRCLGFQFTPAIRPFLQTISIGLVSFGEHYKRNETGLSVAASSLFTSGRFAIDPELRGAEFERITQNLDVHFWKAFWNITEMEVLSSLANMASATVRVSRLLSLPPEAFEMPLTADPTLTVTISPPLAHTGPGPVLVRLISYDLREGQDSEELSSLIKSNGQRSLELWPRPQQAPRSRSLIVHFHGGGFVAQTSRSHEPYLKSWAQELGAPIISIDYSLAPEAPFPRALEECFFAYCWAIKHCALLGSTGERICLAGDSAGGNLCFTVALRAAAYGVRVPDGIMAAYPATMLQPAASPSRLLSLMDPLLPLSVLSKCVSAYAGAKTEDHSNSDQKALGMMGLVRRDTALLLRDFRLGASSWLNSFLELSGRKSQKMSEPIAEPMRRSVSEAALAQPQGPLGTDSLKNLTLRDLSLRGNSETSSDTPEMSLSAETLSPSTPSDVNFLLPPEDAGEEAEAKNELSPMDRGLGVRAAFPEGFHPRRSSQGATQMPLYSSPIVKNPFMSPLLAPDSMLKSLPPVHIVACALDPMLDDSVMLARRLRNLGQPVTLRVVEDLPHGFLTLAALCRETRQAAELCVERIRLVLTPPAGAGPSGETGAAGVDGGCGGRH
# protocol-description: TEST 3180.2 HSL: percent inhibition at 10 μM, 3H-Triolein lipid emulsion
# Assay type: biochemical
# details: 10 μM concentration; percent activity relative to an un-inhibited sample; 30 min preincubation, 30 min reaction at 25° C.; read-out: TEST 3180.2 HSL Activity (%)
measurement-type: activity at 10 µM (%)
Write the number in % without appending the unit.

Given the compound OB(O)c1cc(F)ccc1F , what is its reported activity at 10 µM? 34

Continue with OB(O)c1cccc(-c2ccccc2)c1 96

Continue with OB(O)c1c(Cl)cccc1Cl 88

Continue with OB(O)c1ccco1 89

Continue with CCCCCc1ccc(B(O)O)c(F)c1F 85

Continue with OB(O)c1cc(Br)cc(Br)c1 71

Continue with OB(O)c1csc2ccccc12 76

Continue with OB(O)c1cc(F)cc(F)c1 25

Continue with OB(O)c1cc2ccccc2s1 [Example 92, Benzo[B]thiophene-2-boronic acid] 53

Continue with CC1(C)COB(c2ccc(Br)cc2)OC1 83

Continue with OB(O)c1ccc(F)c(Cl)c1 35

Continue with OB(O)c1cccc(C(F)(F)F)c1 21

Continue with OB(O)c1ccc(F)c(F)c1 45

Continue with OB(O)c1cccc(F)c1 47

Continue with OB(O)c1ccc(OCc2ccccc2)cc1 85

Continue with O=Cc1sccc1B(O)O 92
